Source: patent US6855730B2

Target: flkGST (Homo sapiens)
Sequence (P35968 786-1356 limits assumed): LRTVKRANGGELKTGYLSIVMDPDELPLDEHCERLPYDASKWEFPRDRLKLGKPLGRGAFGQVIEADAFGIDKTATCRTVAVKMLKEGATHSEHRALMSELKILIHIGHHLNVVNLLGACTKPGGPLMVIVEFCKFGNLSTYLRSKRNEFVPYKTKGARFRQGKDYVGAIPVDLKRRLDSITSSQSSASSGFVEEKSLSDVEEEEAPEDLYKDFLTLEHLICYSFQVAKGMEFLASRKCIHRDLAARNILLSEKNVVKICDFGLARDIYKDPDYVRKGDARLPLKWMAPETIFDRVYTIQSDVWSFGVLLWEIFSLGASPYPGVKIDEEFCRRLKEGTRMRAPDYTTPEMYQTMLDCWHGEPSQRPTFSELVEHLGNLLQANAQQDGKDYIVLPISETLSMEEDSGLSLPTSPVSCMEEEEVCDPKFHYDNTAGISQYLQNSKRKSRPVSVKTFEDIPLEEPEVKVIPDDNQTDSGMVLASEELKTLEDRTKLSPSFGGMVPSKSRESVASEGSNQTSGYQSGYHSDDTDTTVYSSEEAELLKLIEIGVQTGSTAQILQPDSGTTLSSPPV
quantity: IC50 (nM)

CCOC(=O)c1c(C)[nH]c(/C=C2\C(=O)Nc3ccc(S(N)(=O)=O)cc32)c1CCCN1CCOCC1; 16900
CNS(=O)(=O)c1ccc2c(c1)/C(=C/c1[nH]c3ccccc3c1CCCN(C)C)C(=O)N2; 2660
CNS(=O)(=O)c1ccc2c(c1)/C(=C/c1cc3ccccc3[nH]1)C(=O)N2; 11100

A: CCOC(=O)c1c(C)[nH]c(/C=C2\C(=O)Nc3ccc(S(=O)(=O)NC)cc32)c1CCCN1CCOCC1
B: NS(=O)(=O)c1ccc2c(c1)/C(=C/c1cc3ccccc3[nH]1)C(=O)N2
C: CNC(=O)CCc1c(/C=C2\C(=O)Nc3ccccc32)[nH]c2c1CCCC2
D: COc1cccc(-c2ccc3c(c2)NC(=O)/C3=C\c2[nH]c3c(c2CCC(=O)O)CCCC3)c1
E: Nc1ccc2c(c1)/C(=C/c1cc3ccccc3[nH]1)C(=O)N2
Q) Order each entry by recorded IC50, climbing from the minimum. Give your ranking as a list of the labels in the requested order.
A) D, E, C, B, A
(D: 70 nM, E: 120 nM, C: 570 nM, B: 2870 nM, A: 9290 nM)

----------
Biological target: EGFR (Homo sapiens, UniProt P00533)
Sequence (P00533 25-1210): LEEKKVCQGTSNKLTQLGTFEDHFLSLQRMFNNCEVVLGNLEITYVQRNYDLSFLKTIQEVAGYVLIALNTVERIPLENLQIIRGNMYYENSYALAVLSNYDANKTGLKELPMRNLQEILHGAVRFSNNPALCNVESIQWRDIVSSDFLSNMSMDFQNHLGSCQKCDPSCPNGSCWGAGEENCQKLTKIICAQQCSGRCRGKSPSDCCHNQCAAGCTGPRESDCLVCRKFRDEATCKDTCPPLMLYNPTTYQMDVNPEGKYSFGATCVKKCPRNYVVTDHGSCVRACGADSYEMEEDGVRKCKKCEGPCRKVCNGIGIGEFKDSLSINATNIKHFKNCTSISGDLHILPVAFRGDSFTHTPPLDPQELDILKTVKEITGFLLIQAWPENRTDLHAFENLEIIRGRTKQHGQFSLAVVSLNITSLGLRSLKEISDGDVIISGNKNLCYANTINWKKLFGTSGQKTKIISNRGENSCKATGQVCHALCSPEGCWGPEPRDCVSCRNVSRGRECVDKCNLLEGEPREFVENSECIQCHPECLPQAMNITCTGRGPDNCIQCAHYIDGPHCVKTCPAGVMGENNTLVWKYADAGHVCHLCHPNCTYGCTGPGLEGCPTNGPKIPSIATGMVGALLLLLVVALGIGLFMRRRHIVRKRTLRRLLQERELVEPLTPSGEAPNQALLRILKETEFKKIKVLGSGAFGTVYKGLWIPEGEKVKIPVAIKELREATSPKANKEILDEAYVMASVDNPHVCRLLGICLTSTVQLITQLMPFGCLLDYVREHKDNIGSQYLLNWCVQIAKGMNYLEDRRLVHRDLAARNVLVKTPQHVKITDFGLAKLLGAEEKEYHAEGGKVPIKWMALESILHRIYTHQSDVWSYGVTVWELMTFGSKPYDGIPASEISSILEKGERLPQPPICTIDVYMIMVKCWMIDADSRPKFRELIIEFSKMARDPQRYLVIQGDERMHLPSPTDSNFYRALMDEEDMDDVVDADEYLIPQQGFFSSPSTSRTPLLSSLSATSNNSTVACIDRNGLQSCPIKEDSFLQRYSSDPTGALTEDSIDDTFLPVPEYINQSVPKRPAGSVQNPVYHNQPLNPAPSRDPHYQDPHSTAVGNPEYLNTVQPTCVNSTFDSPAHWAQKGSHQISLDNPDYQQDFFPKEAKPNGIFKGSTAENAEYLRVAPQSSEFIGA
Assay: EGFR assay (cellular ELISA, NIH 3T3/C7 cells)
Format: cell-based
Design: expressed in transfected cells; host or cells: NIH 3T3/C7
Conditions: read-out: cell EGF IC50
pIC50: −log10 of the molar value.
quantity: pIC50

P: COc1ccc2c(c1)/C(=C\c1cc(C(C)C)c(OC)c(C(C)C)c1)C(=O)N2
Q: CC(C)c1cc(/C=C2/C(=O)Nc3ccc(Cl)cc32)cc(C(C)C)c1OCCN1CCOCC1
Q) pIC50 comparison. Which is larger, P or Q ? # answer = label of selected item
A) Q
(Q: 4.41, P: 4.17)

----------
Molecular target: chimeric receptor having the extra-cellular domain of EGF-R and the intra-cellular domain of Her2 (Homo sapiens, UniProt P04626)
Construct: fused on or other part: the same chimera
Sequence (P04626 676-1255 limits assumed, change not shown): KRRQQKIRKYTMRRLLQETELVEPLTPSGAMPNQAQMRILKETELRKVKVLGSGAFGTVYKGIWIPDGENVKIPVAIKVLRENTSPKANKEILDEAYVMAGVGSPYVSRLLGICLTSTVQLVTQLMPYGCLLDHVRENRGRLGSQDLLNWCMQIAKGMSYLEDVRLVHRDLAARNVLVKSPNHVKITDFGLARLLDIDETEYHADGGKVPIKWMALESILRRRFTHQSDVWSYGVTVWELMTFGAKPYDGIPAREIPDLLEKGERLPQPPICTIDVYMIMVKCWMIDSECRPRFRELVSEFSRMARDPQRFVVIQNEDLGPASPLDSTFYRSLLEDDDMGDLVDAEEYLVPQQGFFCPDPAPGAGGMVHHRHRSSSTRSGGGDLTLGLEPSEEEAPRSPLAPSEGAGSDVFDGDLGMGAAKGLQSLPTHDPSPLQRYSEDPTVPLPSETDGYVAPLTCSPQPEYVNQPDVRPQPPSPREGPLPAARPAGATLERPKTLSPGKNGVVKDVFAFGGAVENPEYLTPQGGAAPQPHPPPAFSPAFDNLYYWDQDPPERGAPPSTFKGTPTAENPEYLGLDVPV
Assay: EGF-induced Her2-driven BrdU incorporation
Settings: read-out: BrdU HER 2 driven IC50
pIC50: −log10 of the molar value.
quantity: pIC50

CC(=O)Nc1ccc2c(c1)NC(=O)/C2=C/c1ccc(OCCN2CCOCC2)c(C2CCCCC2)c1 [Example 16]; 5.38
COc1c(C(C)C)cc(/C=C2/C(=O)Nc3ccccc32)cc1C(C)C [Example 1]; 5.06
COc1ccc2c(c1)/C(=C\c1cc(C(C)C)c(OC)c(C(C)C)c1)C(=O)N2 [Example 17]; 5.26
CC(=O)Nc1ccc2c(c1)NC(=O)/C2=C/c1ccc(OCCN2CCOCC2)c(-c2cccs2)c1 [Example 40]; 4.65

A: CCOc1cccc(-c2cc(C=C3C(=O)Nc4ccccc43)ccc2OC)c1 [Example 46]
B: COc1c(C)cc(/C=C2/C(=O)Nc3ccc(Cl)cc32)cc1C [Example 21]
C: COc1ccc(/C=C2/C(=O)Nc3ccccc32)cc1-c1ccsc1 [Example 35]
Q) Sort these compounds on pIC50 so the largest reading comes first. State the ranking by listing the labels in the requested order.
A) B, C, A

----------
IC50 overview
Target: EGFR (Homo sapiens, UniProt P00533)
Experiment: Biochemical EGFR assay (ELISA, A431 cell lysate)
Set-up: A431 cell lysate (Screening Lab, SUGEN, Inc.); host or cells: A431
Conditions: read-out: bio EGFr IC50

COc1c(C(C)C)cc(/C=C2/C(=O)Nc3cc(F)ccc32)cc1C(C)C; > 100 µM
Cc1c[nH]c(C=C2C(=O)Nc3cc(Cl)ccc32)c1CCC(=O)O; 98.1 µM
CCOC(=O)c1[nH]c(/C=C2\C(=O)Nc3ccc(OC)cc32)c(CCC(=O)O)c1C; > 100 µM

Alright, here's another molecule for you.
Q) Provide the documented IC50 with EGFR (Homo sapiens, UniProt P00533) as the system for Cc1c[nH]c(/C=C2\C(=O)Nc3ccccc32)c1CCC(=O)O
A) > 100 µM
